The reported numbers originate from patent US20230072683A1.

Known inhibition at 0.01 µM of a selection of compounds
# TARGET_DESC: DNA-PK(h) (Homo sapiens)
# PROTOCOL_DETAILS: Evaluation of inhibitory activity against DNA-PK (HTRF kinase assay, GST-cMyc-p53 substrate)
# Assay type: biochemical
# MEASUREMENT_PARAMETERS: compound concentration 0.01 μM; read-out: EXP_VALUE(% Inhibition) DNA-PK(h) 0.01 μM
OUTCOME_MEASURE: inhibition at 0.01 µM (%)

- C[C@H](Nc1ncnc2[nH]ccc(=O)c12)c1c(Cl)c2cccc(-c3ccc(Cl)c(Cl)c3)c2c(=O)n1-c1ccccc1: 16
- C[C@H](Nc1ncnc2[nH]ccc(=O)c12)c1c(Cl)c2cccc(-c3cnc(N(C)C)nc3)c2c(=O)n1-c1ccccc1: 78
- C[C@H](Nc1ncnc2[nH]ccc(=O)c12)c1c(Cl)c2cccc(C#Cc3cnn(C)c3)c2c(=O)n1-c1ccccc1: 23.2
- CC(C)Oc1cc(-c2cccc3c(Cl)c([C@H](C)Nc4ncnc5[nH]ccc(=O)c45)n(-c4ccccc4)c(=O)c23)ccn1: 59
- C[C@H](Nc1ncnc2[nH]ccc(=O)c12)c1c(Cl)c2cccc(N3CCCC3)c2c(=O)n1-c1ccccc1: 4
- C[C@H](Nc1ncnc2[nH]ccc(=O)c12)c1cc2cccc(-c3ccc(N(C)C)nc3)c2c(=O)n1-c1ccccc1: 7
- C[C@H](Nc1ncnc2[nH]ccc(=O)c12)c1c(Cl)c2cccc(-c3ccc4c(c3)OCCN4)c2c(=O)n1-c1ccccc1: 72
- Cc1ncccc1-c1cccc2c(Cl)c([C@H](C)Nc3ncnc4[nH]ccc(=O)c34)n(-c3ccccc3)c(=O)c12: 57
- C[C@H](Nc1ncnc2[nH]ccc(=O)c12)c1c(Cl)c2cccc(N3CCc4ccccc4C3)c2c(=O)n1-c1ccccc1: 26
- C[C@H](Nc1ncnc2[nH]ccc(=O)c12)c1c(Cl)c2cccc(-c3ccc(OCC(F)(F)F)nc3)c2c(=O)n1-c1ccccc1: 48
- C[C@H](Nc1ncnc2[nH]ccc(=O)c12)c1c(Cl)c2cccc(-c3ccc(-c4ccccc4)nc3)c2c(=O)n1-c1ccccc1: 15
- C[C@H](Nc1ncnc2[nH]ccc(=O)c12)c1c(Cl)c2cccc(C#Cc3ccnn3C)c2c(=O)n1-c1ccccc1: 47.1
- C[C@H](Nc1ncnc2[nH]ccc(=O)c12)c1c(Cl)c2cccc(C3NCCS3)c2c(=O)n1-c1ccccc1 (stereo partly shown): 34

====

# TARGET_DESC: DNA-PK(h) (Homo sapiens)
# PROTOCOL_DETAILS: Evaluation of inhibitory activity against DNA-PK (HTRF kinase assay, GST-cMyc-p53 substrate)
# Type: biochemical
# MEASUREMENT_PARAMETERS: compound concentration 0.1 μM; read-out: EXP_VALUE(% Inhibition) DNA-PK(h) 0.1 μM
This section presents compounds with their documented inhibition at 0.1 µM values.
OUTCOME_MEASURE: inhibition at 0.1 µM (%)

* C[C@H](Nc1ncnc2[nH]ccc(=O)c12)c1c(Cl)c2cccc(-c3ccccc3F)c2c(=O)n1-c1ccccc1 | 92
* C[C@H](Nc1ncnc2[nH]ccc(=O)c12)c1c(Cl)c2cccc(-c3cc(F)ccc3Cl)c2c(=O)n1-c1ccccc1 | 54
* C[C@H](Nc1ncnc2[nH]ccc(=O)c12)c1c(Cl)c2cccc(C#N)c2c(=O)n1-c1ccccc1 | 77
* C[C@H](Nc1ncnc2[nH]ccc(=O)c12)c1c(C2CC2)c2cccc(Cl)c2c(=O)n1-c1ccccc1 | 90
* C[C@H](Nc1ncnc2[nH]ccc(=O)c12)c1cc2cccc(-c3cnn(C)c3)c2c(=O)n1-c1ccccc1 | 37
* Cc1ccc(-c2cccc3c(Cl)c([C@H](C)Nc4ncnc5[nH]ccc(=O)c45)n(-c4ccccc4)c(=O)c23)cc1 | 73.6
* CCc1cccc2c(Cl)c([C@H](C)Nc3ncnc4[nH]ccc(=O)c34)n(-c3ccccc3)c(=O)c12 | 94
